Origin of values: PubChem BioAssay (NCI)

System: HCT-116 colon
Assay: NCI tumour cell line growth inhibition, 48 h
Readout type: TGI

## Input Name the reported TGI value associated with the molecule COC1C(O)C(C)OC(O[C@H]2CC[C@@]3(C)C(CC[C@@H]4[C@@H]3CC[C@]3(C)[C@@H](C(C)OC5OC(CO)C(O)C(O)C5O)CC[C@]43O)C2)C1O (stereo not given in full)
## Output > 25 µM

## Input Need TGI, item N#CCCN(CCCCN(CCC#N)C(=O)Nc1ccccc1)C(=O)Nc1ccccc1
## Output > 100 µM

## Input // TGI lookup, key: CCCCCCc1ccc(CCCCCCCC(=O)O)o1
## Output > 100 µM

## Input GET /values?readout=TGI&item= CCOC(=O)c1sc2nc(SC)nc3c2c1NCN3C
## Output > 100 µM

## Input Fill in: TGI of CC(C)OC1=C(CC2(C)OCCO2)C(=O)C12OCCO2 is ___
## Output > 100 µM

---

Test system: SF-295 CNS
Assay: NCI tumour cell line growth inhibition, 48 h
Provide the recorded TGI for the entries that follow.

## Input Which TGI is listed for O=c1c(O)c(-c2ccccc2)oc2c(CP(=O)(O)O)cccc12 ?
## Output > 100 µM

## Input TGI lookup needed for NS(=O)(=O)c1nnc(NS(=O)(=O)c2cccc3cccnc23)s1 , thanks.
## Output > 100 µM

## Input Reported TGI, compound Cc1cc(N(CCC#N)CCC#N)ccc1/C(N=Nc1ccc(C(=O)O)cc1)=N\NC(=O)c1ccccc1 : ____
## Output > 100 µM

## Input State the recorded TGI for this entry: Nc1nc(-c2ccc3c(c2)/C(=C\c2cc(Br)c(O)c(Br)c2)C(=O)N3)cs1
## Output > 25 µM

## Input Need TGI, item Cc1cnc2c(c1)C(=O)N(c1ccc(Oc3ccccc3)cc1)S2(=O)=O
## Output > 100 µM

## Input Which value of TGI has been reported for COc1ccc(C(=O)/C=C/c2ccc(OCc3cccc(C(F)(F)F)c3)c(OC)c2)cc1OC in the records?
## Output > 1000 µM

## Input May I ask what TGI has been recorded for O=[N+]([O-])c1ccc2c(c1)C(N1CCN(CCO)CC1)Cc1ccc(F)cc1S2 (stereo not given) ?
## Output 14.1 µM

## Input Which measured TGI value corresponds to COc1ccc(C(C2=C(O)CC(C)OC2=O)C2=C(O)CC(C)OC2=O)cc1 (stereo not given) ?
## Output > 100 µM

## Input # get_value(readout='TGI', item= CC1Cc2c(Cl)ncnc2N(C)c2ccccc21 (stereo not given) )
## Output 37.4 µM

## Input Look at this compound and give its reported TGI. O=C(Nc1ccc(Br)c2ccccc12)c1ccc2ccccc2c1O
## Output 8.65 µM

## Input Given the entry Cc1ccc(/C=c2\c(=O)[nH]c3nc4ccccc4c(=O)n23)cc1 , report its measured TGI.
## Output > 100 µM

## Input Requested read-out: TGI. Entry: Cc1ccc(C)n1-c1ccccc1C1C=Cn2c(=O)oc3c(OC(C)C)c(OC(C)C)c(O)c1c32 (stereo not given)
## Output > 100 µM

## Input Would you mind telling me what TGI value was observed for O=C(Nc1ccc(Cl)c(Cl)c1)c1ccc(NC2=C(Cl)C(=O)N(Cc3ccccc3)C2=O)cc1 ?
## Output 34.7 µM

## Input Tell me the measured TGI of COC(=O)NC(Cc1ccccc1)NC(=O)OC(C)(C)C (stereo not given) , please.
## Output > 100 µM

## Input Dear colleague, I am looking for the recorded TGI of the following compound: CC1(C)CC(=O)C(CC2C(=O)CCCC2=O)C(=O)C1
## Output > 100 µM
